system_under_test: GST-tagged truncated human mutant G2019S LRRK2 (Homo sapiens (Human), UniProt Q5S007, G2019S)
Sequence (Q5S007 970-2527 G2019S): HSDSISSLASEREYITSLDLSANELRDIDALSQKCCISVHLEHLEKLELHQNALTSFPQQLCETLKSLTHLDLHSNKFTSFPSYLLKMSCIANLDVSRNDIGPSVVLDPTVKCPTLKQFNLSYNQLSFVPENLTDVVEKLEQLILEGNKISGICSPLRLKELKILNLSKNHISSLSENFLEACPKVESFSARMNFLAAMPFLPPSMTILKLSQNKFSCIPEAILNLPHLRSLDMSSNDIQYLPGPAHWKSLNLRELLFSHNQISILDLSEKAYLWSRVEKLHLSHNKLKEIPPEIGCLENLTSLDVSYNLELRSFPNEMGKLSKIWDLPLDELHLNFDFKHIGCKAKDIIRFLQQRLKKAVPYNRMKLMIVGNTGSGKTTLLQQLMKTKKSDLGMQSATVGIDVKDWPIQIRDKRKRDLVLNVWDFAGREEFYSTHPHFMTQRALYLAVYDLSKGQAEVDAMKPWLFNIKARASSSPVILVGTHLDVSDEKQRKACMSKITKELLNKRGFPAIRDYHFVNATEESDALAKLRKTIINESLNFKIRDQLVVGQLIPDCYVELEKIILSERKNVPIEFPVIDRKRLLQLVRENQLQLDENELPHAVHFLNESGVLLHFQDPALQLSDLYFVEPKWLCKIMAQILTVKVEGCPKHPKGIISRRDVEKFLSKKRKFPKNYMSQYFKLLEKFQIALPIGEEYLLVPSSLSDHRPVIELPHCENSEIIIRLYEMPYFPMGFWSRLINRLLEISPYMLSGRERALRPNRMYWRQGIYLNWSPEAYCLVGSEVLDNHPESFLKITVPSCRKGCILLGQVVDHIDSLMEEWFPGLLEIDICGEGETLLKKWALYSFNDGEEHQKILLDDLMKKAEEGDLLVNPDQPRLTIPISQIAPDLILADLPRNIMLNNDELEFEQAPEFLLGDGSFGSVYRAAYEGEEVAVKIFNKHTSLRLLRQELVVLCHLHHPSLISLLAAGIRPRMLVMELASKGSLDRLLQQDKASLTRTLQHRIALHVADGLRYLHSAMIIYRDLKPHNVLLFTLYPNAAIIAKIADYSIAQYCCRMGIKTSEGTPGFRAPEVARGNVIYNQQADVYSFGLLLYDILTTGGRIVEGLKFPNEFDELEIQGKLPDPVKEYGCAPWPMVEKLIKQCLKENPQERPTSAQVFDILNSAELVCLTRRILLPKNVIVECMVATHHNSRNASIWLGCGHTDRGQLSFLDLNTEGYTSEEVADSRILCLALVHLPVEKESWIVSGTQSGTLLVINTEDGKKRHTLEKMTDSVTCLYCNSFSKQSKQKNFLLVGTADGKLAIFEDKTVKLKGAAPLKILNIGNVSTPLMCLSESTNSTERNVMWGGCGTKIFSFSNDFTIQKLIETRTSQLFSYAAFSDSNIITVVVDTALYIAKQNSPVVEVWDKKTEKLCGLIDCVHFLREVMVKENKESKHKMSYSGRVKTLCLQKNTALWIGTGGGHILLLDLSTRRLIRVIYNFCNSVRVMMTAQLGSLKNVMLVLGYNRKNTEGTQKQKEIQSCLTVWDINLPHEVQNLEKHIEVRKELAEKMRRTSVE
protocol_description: LRRK2 G2019S Km ATP LanthaScreen assay
Assay type: biochemical
experimental_parameters: G2019S LRRK2, 134 μM ATP (Km ATP), LRRKtide substrate
quantity_kind: LRRK2 pIC50
Numbers only.

As a guide, the following entries are already answered.
Cc1nn(C2CCC2)c2c1OC1COC[C@@H]1CNc1nc(ncc1Cl)N2 (stereo partly shown) [Ex-2.84]    8.77
C[C@@H]1CCOc2cn(C)nc2Nc2ncc(Cl)c(n2)N1    7.94

Turning now to a further record.
What measured LRRK2 pIC50 goes with CCOC(=O)[C@@H]1C[C@@H]1c1nn(C(C)C)c2c1OC[C@@H]1COC[C@H]1Nc1nc(ncc1C(F)(F)F)N2 [Ex-2.46] ?
6.66
